# Protocol Text: in vitro
# Experimental Parameters: human, Caco-2, Caco-2 (cm/sec)
*1 amine or outer side, *2 acyl side, *3 side chain or, on linkers, in order; H or OH if unused. Where a SMILES comes first, the peptide text is derived from it. Bridges are numbered along the chain shown (N, C = ends). [ ]: non-standard residue; d: D form. The star is where a group is joined. Phe(3-CONHMe,4-OMe) = CNC(=O)c1cc(C[C@H](N)C(=O)O)ccc1OC; NMeW = CN[C@@H](Cc1c[nH]c2ccccc12)C(=O)O; NMeF = CN[C@@H](Cc1ccccc1)C(=O)O; hPhe = N[C@@H](CCc1ccccc1)C(=O)O; NMeβAla = CN(CCC(=O)[*:2])[*:1]; NMeL = CN[C@@H](CC(C)C)C(=O)O; NMeV = CN[C@H](C(=O)O)C(C)C; NMeA = CN[C@@H](C)C(=O)O; Piperidide = C1CCN(*)CC1; CH2CMe2OH = CC(C)(O)C*; NPrGly = CCCNCC(=O)O; Sar = CNCC(=O)O
# Papp listing for each entry below

Molecule	Papp
CC(C)C[C@@H]1NC(=O)[C@H](Cc2ccccc2)N(C)C(=O)[C@H](CC(C)C)N(C)C(=O)CCN(C)C(=O)C[C@@H](C(=O)N2CCCCC2)NC(=O)[C@H](CC(C)C)N(C)C(=O)[C@H](Cc2ccccc2)N(C)C(=O)[C@H]([C@@H](C)O)NC(=O)[C@H](Cc2ccccc2)N(C)C1=O [pd207] ([NMeβAla][NMeL][NMeF]L[NMeF]T[NMeF][NMeL]D-Piperidide; lactam N-9)	1.7 ×10⁻⁶ cm/s
CCCN1CC(=O)N(C)[C@@H](Cc2ccccc2)C(=O)N(C)[C@@H](CC(C)C)C(=O)N[C@@H](COCC(C)(C)O)C(=O)N(C)[C@@H](CC(C)C)C(=O)N[C@H](C(=O)N2CCCCC2)CC(=O)N(C)CC(=O)N(C)[C@@H](Cc2ccccc2)C(=O)N[C@@H]([C@@H](C)CC)C(=O)N(C)[C@@H](CC(C)C)C(=O)N[C@@H]([C@@H](C)O)C1=O [AP08] ([Sar][NMeF]I[NMeL]T[NPrGly][NMeF][NMeL]S(CH2CMe2OH)[NMeL]D-Piperidide; lactam N-11)	0.67 ×10⁻⁶ cm/s
CC(C)C[C@H]1C(=O)N(C)[C@@H](Cc2ccccc2)C(=O)N[C@H](C(=O)N2CCCCC2)CC(=O)N(C)[C@@H](C(C)C)C(=O)N[C@@H](C)C(=O)N(C)[C@@H](Cc2ccccc2)C(=O)N(C)[C@@H](CC(C)C)C(=O)N(C)CC(=O)N[C@@H]([C@@H](C)O)C(=O)N(C)[C@@H](C(C)C)C(=O)N[C@@H](CCc2ccccc2)C(=O)N1C [pd182] ([NMeV]A[NMeF][NMeL][Sar]T[NMeV][hPhe][NMeL][NMeF]D-Piperidide; lactam N-11)	2.6 ×10⁻⁶ cm/s
CC(C)C[C@H]1C(=O)N(C)[C@@H](Cc2c[nH]c3ccccc23)C(=O)N(C)[C@@H](Cc2ccccc2)C(=O)N[C@@H]([C@@H](C)O)C(=O)N(C)[C@@H](C)C(=O)N(C)[C@@H](CC(C)C)C(=O)N[C@H](C(=O)N2CCCCC2)CC(=O)N(C)[C@@H](C)C(=O)N(C)[C@@H](CC(C)C)C(=O)N(C)[C@@H](CC(C)C)C(=O)N[C@@H](C)C(=O)N1C [pd104] ([NMeA][NMeL][NMeL]A[NMeL][NMeW][NMeF]T[NMeA][NMeL]D-Piperidide; lactam N-11)	0.025 ×10⁻⁶ cm/s

Which Papp is reported for this molecule? CC(C)C[C@H]1C(=O)N[C@H](C(=O)N(C)[C@@H](Cc2ccccc2)C(=O)N[C@@H](C)C(=O)N2CCCCC2)CC(=O)N(C)[C@@H](C)C(=O)N[C@@H]([C@@H](C)O)C(=O)N(C)[C@@H](C)C(=O)N(C)[C@@H](CC(C)C)C(=O)N[C@@H](C(C)C)C(=O)N(C)[C@@H](Cc2ccccc2)C(=O)N[C@@H](Cc2ccccc2)C(=O)N1C [pd212] ([NMeA]T[NMeA][NMeL]V[NMeF]F[NMeL]D[NMeF]A-Piperidide; lactam N-9)
1.4 ×10⁻⁶ cm/s

Which Papp is reported for this molecule? CNC(=O)c1cc(C[C@@H]2NC(=O)[C@H](CC(C)C)N(C)C(=O)[C@H](CC(C)C)N(C)C(=O)[C@H](CC(C)C)NC(=O)[C@H](CC(C)C)N(C)C(=O)C[C@@H](C(=O)N3CCCCC3)NC(=O)[C@H](CC(C)C)N(C)C(=O)CN(C)C(=O)[C@H]([C@@H](C)O)NC(=O)[C@H](C(C)C)N(C)C(=O)[C@H](CC(C)C)N(C)C2=O)ccc1OC [AP40] ([NMeL]L[NMeL][NMeL][Phe(3-CONHMe,4-OMe)][NMeL][NMeV]T[Sar][NMeL]D-Piperidide; lactam N-11)
0.63 ×10⁻⁶ cm/s

* * *

# Protocol Text: in vitro
# Experimental Parameters: human, Caco-2, Caco-2 (cm/sec)
Where a SMILES comes first, the peptide text is derived from it. Bridges are numbered along the chain shown (N, C = ends). [ ]: non-standard residue; d: D form. The star is where a group is joined. hPhe(3-OMe,4-CONHMe) = CNC(=O)c1ccc(CC[C@H](N)C(=O)O)cc1OC; NMeF = CN[C@@H](Cc1ccccc1)C(=O)O; NMeI = CC[C@H](C)[C@H](NC)C(=O)O; NMeD = CN[C@@H](CC(=O)O)C(=O)O; NMeL = CN[C@@H](CC(C)C)C(=O)O; NMeV = CN[C@H](C(=O)O)C(C)C; NMeA = CN[C@@H](C)C(=O)O; Piperidide = C1CCN(*)CC1; Sar = CNCC(=O)O; tBu = CC(C)(C)*
# Papp listing for each entry below
Value expressed in ×10⁻⁶ cm/s; do not type the unit.

Molecule	Papp (×10⁻⁶ cm/s)
CC(C)C[C@@H]1NC(=O)[C@H](Cc2ccccc2)N(C)C(=O)[C@@H]2CCCN2C(=O)C[C@@H](C(=O)N2CCCCC2)N(C)C(=O)[C@H](Cc2ccccc2)N(C)C(=O)[C@H](Cc2ccccc2)N(C)C(=O)[C@H](COC(C)(C)C)NC(=O)[C@H](C(C)C)N(C)C(=O)CN(C)C(=O)[C@H]([C@@H](C)O)NC(=O)[C@H](CC(C)C)N(C)C1=O [pd196] (P[NMeF]L[NMeL]T[Sar][NMeV]S(tBu)[NMeF][NMeF][NMeD]-Piperidide; lactam N-11)	4
CC[C@H](C)[C@@H]1NC(=O)[C@H](CC(C)C)NC(=O)[C@H](CC(C)C)N(C)C(=O)[C@H](CC(C)C)NC(=O)C[C@@H](C(=O)N2CCCCC2)NC(=O)[C@H](CC(C)C)N(C)C(=O)[C@H]([C@@H](C)O)NC(=O)[C@H](CCc2ccc(C(=O)NC)c(OC)c2)NC(=O)[C@H](CC(C)C)N(C)C1=O [AP263] (L[NMeL]LI[NMeL][hPhe(3-OMe,4-CONHMe)]T[NMeL]D-Piperidide; lactam N-9)	1.8

Let us examine a further case.
Which Papp is reported for this molecule? CC[C@H](C)[C@H]1C(=O)N[C@@H](Cc2ccc(O)cc2)C(=O)N(C)CC(=O)N(C)[C@@H](CC(C)C)C(=O)N[C@H](C(=O)N2CCCCC2)CC(=O)N(C)[C@@H](C)C(=O)N[C@@H](C(C)C)C(=O)N(C)[C@@H](CC(C)C)C(=O)N(C)[C@@H](CC(C)C)C(=O)N[C@@H](C)C(=O)N(C)[C@@H](Cc2ccccc2)C(=O)N1C [pd126] ([NMeA]V[NMeL][NMeL]A[NMeF][NMeI]Y[Sar][NMeL]D-Piperidide; lactam N-11)
0.42

* * *

# Protocol Text: in vitro
# Experimental Parameters: human, Caco-2, Caco-2 (cm/sec)
Where a SMILES comes first, the peptide text is derived from it. Bridges are numbered along the chain shown (N, C = ends). [ ]: non-standard residue; d: D form. The star is where a group is joined. Phe(3-OMe,4-CONHMs) = COc1cc(C[C@H](N)C(=O)O)ccc1C(=O)NS(C)(=O)=O; Phe(4-COOH) = N[C@@H](Cc1ccc(C(=O)O)cc1)C(=O)O; NMePhe(3-Cl) = CN[C@@H](Cc1cccc(Cl)c1)C(=O)O; NMeF = CN[C@@H](Cc1ccccc1)C(=O)O; NMeL = CN[C@@H](CC(C)C)C(=O)O; NMeAbu = CC[C@H](NC)C(=O)O; NMeA = CN[C@@H](C)C(=O)O; Piperidide = C1CCN(*)CC1; X8 = C1COC[C@@H](C*)N1; NBuGly = CCCCNCC(=O)O; N(OH)Me = CN(O)*; Sar = CNCC(=O)O; tBu = CC(C)(C)*
Attribute Measured: Papp (×10⁻⁶ cm/s)
Value expressed in ×10⁻⁶ cm/s; do not type the unit.

Examples from the recorded data:
Compound	Attribute Measured	Endpoint Result
CC[C@H]1C(=O)N(C)[C@@H](Cc2ccccc2)C(=O)N[C@@H](CC(C)C)C(=O)N(C)[C@@H](CC(C)C)C(=O)N(C)[C@@H](CC(C)C)C(=O)N[C@@H](COC[C@@H]2COCCN2)C(=O)N(C)CC(=O)N(C)[C@@H](CC(C)C)C(=O)N[C@H](C(=O)N2CCCCC2)CC(=O)N(C)[C@@H](C)C(=O)N[C@@H](CC(C)C)C(=O)N1C [AP246] ([NMeA]L[NMeAbu][NMeF]L[NMeL][NMeL]S(X8)[Sar][NMeL]D-Piperidide; lactam N-11)	Papp	0.23
CCCCN1CC(=O)N(C)[C@@H](CC(C)C)C(=O)N(C)[C@@H](CC(C)C)C(=O)N[C@@H](COC(C)(C)C)C(=O)N(C)[C@@H](CC(C)C)C(=O)N[C@H](C(=O)N2CCCCC2)CC(=O)N(C)CC(=O)N(C)[C@@H](Cc2cccc(Cl)c2)C(=O)N[C@@H](Cc2ccc(C(=O)N(C)O)cc2)C(=O)N(C)[C@@H](CC(C)C)C(=O)N[C@@H]([C@@H](C)O)C1=O [AP254] ([Sar][NMePhe(3-Cl)][Phe(4-COOH)](N(OH)Me)[NMeL]T[NBuGly][NMeL][NMeL]S(tBu)[NMeL]D-Piperidide; lactam N-11)	Papp	0.15

Which Papp is reported for this compound? CCCCN1CC(=O)N(C)[C@@H](CC(C)C)C(=O)N(C)[C@@H](CC(C)C)C(=O)N[C@@H](COC(C)(C)C)C(=O)N(C)[C@@H](CC(C)C)C(=O)N[C@H](C(=O)N2CCCCC2)CC(=O)N(C)CC(=O)N(C)[C@@H](Cc2cccc(Cl)c2)C(=O)N[C@@H](Cc2ccc(C(=O)NS(C)(=O)=O)c(OC)c2)C(=O)N(C)[C@@H](CC(C)C)C(=O)N[C@@H]([C@@H](C)O)C1=O [AP140] ([Sar][NMePhe(3-Cl)][Phe(3-OMe,4-CONHMs)][NMeL]T[NBuGly][NMeL][NMeL]S(tBu)[NMeL]D-Piperidide; lactam N-11)
0.49

Which Papp is reported for this compound? CCCCN1CC(=O)N(C)[C@@H](CC(C)C)C(=O)N[C@@H](Cc2ccc(C(=O)NS(C)(=O)=O)c(OC)c2)C(=O)N(C)[C@@H](CC(C)C)C(=O)N(C)[C@@H](CC(C)C)C(=O)N[C@H](C(=O)N2CCCCC2)CC(=O)N[C@H](CC(C)C)C(=O)N(C)[C@@H](Cc2ccccc2)C(=O)N[C@@H](C(C)C)C(=O)N(C)[C@@H](CC(C)C)C(=O)N[C@@H]([C@@H](C)O)C1=O [AP136] ([dL][NMeF]V[NMeL]T[NBuGly][NMeL][Phe(3-OMe,4-CONHMs)][NMeL][NMeL]D-Piperidide; lactam N-11)
0.47
